half-life at 5 μM by entry:
# protocol-summary: Microsomal stability of compounds (liver microsomes, LC/MS/MS)
# Format: in vitro ADME
# conditions: pH 7.4, 5 μM test compound, 1 mg/mL microsomal protein, 37° C. up to 60 minutes, species and Phase I / Phase I+II not given, read-out: Microsomal t ½
# Description: Microsomal Stability of Compounds Described Herein Liver microsomes are purchased from XenoTech, LLC (Lenexa, Kans.). Other chemicals are obtained from Sigma-Aldrich (Milwaukee, Wis.). […] A mixture of the test compound and liver microsomes (475 μL total) are pre-incubated for 5 minutes at 37° C. […] The samples are vortexed, centrifuged at 4000 rpm (3400 rcf) for 15 minutes, and clear supernatants are analyzed by LC/MS/MS. […]
measurement-label: half-life at 5 μM (min)

| compound | measurement-label | meas-value |
| --- | --- | --- |
| [2H]C1([2H])Oc2cc(C)c(-c3cnc(NC(=O)c4c(F)cccc4F)cn3)cc2O1 [Compound 16] | half-life at 5 μM | 17 |
| O=C(Nc1ccc(-c2cc3c(cc2Cl)OC(F)(F)O3)cn1)c1ccncc1Cl [Compound 7] | half-life at 5 μM | 339 |
| O=C(Nc1ccc(-c2cc3c(cc2Br)OCO3)cc1)c1c(F)cccc1F [Compound 2] | half-life at 5 μM | 3 |
| O=C(Nc1cnc(-c2cc3c(cc2Cl)OC(F)(F)O3)cn1)C1CCCC1 [Compound 29] | half-life at 5 μM | 38 |

* * *

Entries and their half-life at 5 μM values follow.
# protocol-summary: Microsomal stability of compounds (liver microsomes, LC/MS/MS)
# Type: in vitro ADME
# conditions: pH 7.4, 5 μM test compound, 1 mg/mL microsomal protein, 37° C. up to 60 minutes, species and Phase I / Phase I+II not given, read-out: Microsomal t ½
measurement-label: half-life at 5 μM (min)

| molecule | meas-value |
| --- | --- |
| Cc1ccc(F)cc1C(=O)Nc1cnc(-c2cc3c(cc2C)OC(F)(F)O3)cn1 [Compound 26] | 47 |
| O=C(Nc1ccc(-c2cc3c(cc2Cl)OC(F)(F)O3)cn1)C1CCC1 [Compound 30] | 11 |
| Cc1ccccc1C(=O)Nc1ccc(-c2cc3c(cc2C)OC(F)(F)O3)cn1 [Compound 22] | 109 |
| O=C(Nc1ccc(-c2cc3c(cc2Cl)OC(F)(F)O3)cn1)C1CC1 [Compound 33] | 81 |
| [2H]C1([2H])Oc2cc(C)c(-c3ccc(NC(=O)c4c(F)cccc4F)nc3)cc2O1 [Compound 15] | 36 |
| CCCC(=O)Nc1ccc(-c2cc3c(cc2Cl)OC(F)(F)O3)cn1 [Compound 32] | 19 |
| O=C(Nc1ccc(-c2cc3c(cc2Cl)OC(F)(F)O3)cn1)c1ccncc1F [Compound 4] | 281 |
| Cc1c(F)cccc1C(=O)Nc1cnc(-c2cc3c(cc2Cl)OC(F)(F)O3)cn1 [Compound 20] | 74 |
| O=C(Nc1ccc(-c2cc3c(cc2Br)OCO3)cn1)c1c(F)cccc1F [Compound 1] | 6 |

* * *

As shown below, each of these compounds has a reported half-life at 5 μM value.
# protocol-summary: Microsomal stability of compounds (liver microsomes, LC/MS/MS)
# Assay type: in vitro ADME
# conditions: pH 7.4, 5 μM test compound, 1 mg/mL microsomal protein, 37° C. up to 60 minutes, species and Phase I / Phase I+II not given, read-out: Microsomal t ½
measurement-label: half-life at 5 μM

| smiles | measurement-label | meas-value |
| --- | --- | --- |
| Cc1ccccc1C(=O)Nc1cnc(-c2cc3c(cc2C)OC(F)(F)O3)cn1 | half-life at 5 μM | 67 min |
| O=C(CCc1ccccc1)Nc1ccc(-c2cc3c(cc2Cl)OC(F)(F)O3)cn1 | half-life at 5 μM | 26 min |
| Cc1cc2c(cc1-c1ccc(NC(=O)c3c(F)cccc3F)nc1)OCO2 | half-life at 5 μM | 22 min |
| O=C(Nc1ccc(-c2cc3c(cc2Cl)OC(F)(F)O3)cn1)C1CCCC1 | half-life at 5 μM | 40 min |
